EXPERIMENTAL_SYSTEM: protein kinase
TEST_NAME: HTS ATP-utilizing enzyme assay, off-chip mobility-shift format (Caliper HTS 250)
Type: biochemical, human
RECORDED_CONDITIONS: kinase(s) for which the compound exhibits protein kinase inhibitory activity; test compound 10 μM; active = greater than three-sigma from the mean activity of inactive compounds
QUANTITY: Kinase

The cases that follow already have their Kinase on record.
>>> assay_value("CCn1c(SCC(=O)N2CCN(c3ccc(OC)cc3)CC2)nnc1-c1ccc(O)cc1")
"SYK"
>>> assay_value("COc1ccc(-n2c(CNc3cc(C(F)(F)F)ccc3Cl)nnc2SCC#N)cc1")
"CDK1"
>>> assay_value("Cc1ccc(OCc2nnc(SCC#N)n2C)cc1")
"CSK"
>>> assay_value("NC(=O)CSc1nnc(-c2ccc(NS(=O)(=O)c3ccccc3)cc2)n1-c1ccccc1")
"AURORA-A"
>>> assay_value("C=CCn1c(Sc2c(O)nc3ccccc3c2-c2ccccc2)nnc1-c1ccc(Cl)c(Cl)c1")
"FLT-3"
>>> assay_value("CCOC(=O)CN(C(=O)CSc1nnc(-c2ccccc2O)n1CCc1ccccc1)c1cccc([N+](=O)[O-])c1")
"AURORA-A"
>>> assay_value("COc1ccc(NCc2nnc(SCC#N)n2-c2ccccc2OC)cc1")
"FYN"
>>> assay_value("Cc1ccc(NCc2nnc(SCC(=O)N3c4ccccc4Sc4ccccc43)n2C)cc1")
"DAPK1"

Proceed to the following item.
Query: Report Kinase, nothing else, for this compound: "COc1ccc(-n2c(SCC(=O)O)nnc2-c2ccccc2OC)cc1"
Response: AURORA-A

----------
EXPERIMENTAL_SYSTEM: protein kinase
TEST_NAME: HTS ATP-utilizing enzyme assay, off-chip mobility-shift format (Caliper HTS 250)
Format: biochemical, human
RECORDED_CONDITIONS: kinase(s) for which the compound exhibits protein kinase inhibitory activity; test compound 10 μM; active = greater than three-sigma from the mean activity of inactive compounds
QUANTITY: Kinase

The cases that follow already have their Kinase on record.
>>> assay_value("Cc1cccc(-c2nnc(SCC(=O)Nc3cccc(C(F)(F)F)c3)n2C)c1")
"CDK2-cyclinE"
>>> assay_value("Cc1ccc(NCc2nnc(SCC(=O)Nc3cccc(O)c3)n2Cc2ccco2)c(C)c1")
"CHEK2"
>>> assay_value("COc1ccc(CCNC(=O)CSc2nnc(-c3cc4ccccc4cc3O)n2C)cc1OC")
"FYN"
>>> assay_value("O=C(CSc1nnc(Cc2ccccc2)n1Cc1ccccc1)Nc1ccccc1-c1ccccc1")
"CDK2-cyclinE"
>>> assay_value("Cc1cc(NC(=O)CSc2nnc(-c3cccnc3)n2-c2ccc(F)cc2)no1")
"FYN"
>>> assay_value("CCN(CC)C(=O)CSc1nnc(-c2ccc(S(=O)(=O)N3CCCCCC3)cc2)n1CC")
"AURORA-A"
>>> assay_value("Fc1ccc(NCc2nnc(S)n2-c2ccccc2)cc1")
"AURORA-A"
>>> assay_value("CCn1c(SCC(=O)Nc2ccc(C)cc2)nnc1-c1ccc(O)cc1")
"AURORA-A"

Proceed to the following item.
Query: Report Kinase, nothing else, for this compound: "COCCn1c(SCC(=O)OC2CCCCC2)nnc1-c1cc2ccccc2cc1O"
Response: DAPK1

----------
EXPERIMENTAL_SYSTEM: protein kinase
TEST_NAME: HTS ATP-utilizing enzyme assay, off-chip mobility-shift format (Caliper HTS 250)
Format: biochemical, human
RECORDED_CONDITIONS: kinase(s) for which the compound exhibits protein kinase inhibitory activity; test compound 10 μM; active = greater than three-sigma from the mean activity of inactive compounds
QUANTITY: Kinase

>>> assay_value("O=C(CSc1nnc(-c2ccccc2O)n1Cc1ccccc1)Nc1cccc(I)c1")
"SYK"
>>> assay_value("Cc1cccc(OCc2nnc(SCC(=O)N3CCCc4ccccc43)n2Cc2ccco2)c1C")
"AKT1"
